Assignment: determine reported IC50 for the given molecules.
Target: Phosphodiesterase 1 (Bos taurus, UniProt Q01061+P14100)
Assay: Inhibition of bovine aorta Phosphodiesterase 1
Assay type: protein assay

Examples with answers:
SMILES NOTATION | MEASURED ENDPOINT | OBSERVED RESULT
Cl.Cl.O=[N+]([O-])c1ccc2nc(-c3cccnc3)nc(NCc3ccccc3)c2c1 | IC50 | > 3000 nM
Cl.Cl.Clc1ccc2nc(-c3cccnc3)nc(NCc3ccccc3)c2c1 | IC50 | > 50000 nM

Give the reported IC50 for this molecule. Cl.Cl.Clc1ccc2nc(-n3ccnc3)nc(NCc3ccccc3)c2c1
> 3000 nM

Origin of values: ChEMBL document CHEMBL1128541
